Values from ChEMBL document CHEMBL1201862

Give measured IC50 for each item. Keep answers brief.
Target: Carboxy-terminal domain RNA polymerase II polypeptide A small phosphatase 1 (Homo sapiens)
Sequence (Q9GZU7 whole entry): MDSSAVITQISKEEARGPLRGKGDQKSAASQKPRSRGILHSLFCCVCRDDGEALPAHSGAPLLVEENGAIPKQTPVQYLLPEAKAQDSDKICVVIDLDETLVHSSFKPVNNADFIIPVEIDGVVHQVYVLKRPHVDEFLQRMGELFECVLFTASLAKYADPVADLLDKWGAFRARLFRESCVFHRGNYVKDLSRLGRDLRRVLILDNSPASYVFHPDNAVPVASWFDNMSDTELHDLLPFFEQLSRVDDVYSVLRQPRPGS
Assay: CTDSP1 inhibitors, concentration-response, biochemical, absorbance readout, ultra-high-throughput screen actives (AID 540297)
Format: functional
Where a name gives a salt, the structure may show the parent alone. Active and inactive are the calls of the source. Rule as the data show it: actives have a measured IC50 and inactives only a lower limit.

Problem: Find the recorded IC50 belonging to CC1CN(C2=CC(=[N+]3CCOCC3)CC(C)(C)C2)CC(C)O1 (centres undefined) and report it.
Result: 1.83 µM (active)

Problem: Now the same for `Cc1cc(C(=O)N/N=C/c2ccc(-c3ccccc3Cl)o2)[nH]n1`
Result: 11.5 µM (active)

Problem: Now the same for COc1ccc(CN2CCNCC2)c(OC)c1OC [TRIMETAZIDINE DIHYDROCHLORIDE]
Result: 8.85 µM (active)

Problem: Now the same for `O=C(Nc1ccc(S(=O)(=O)Nc2nccs2)cc1)c1nn(-c2ccccc2)ccc1=O`
Result: 3.52 µM (active)
